Test system: Candida albicans
method: Antifungal activity against Candida albicans by paper disk method
Type: functional, organism-based
The source made the active and inactive calls. The calls are words filed in the database; no cut-off is given here.
experimentalReadout: Activity

Use the examples below as a reference point.
compound=CC(C)CC[C@@H]1C(=O)O[C@@H](C)[C@@H]1O measured=Active
compound="CC(C)(O)CCCCCC1C=CC(=O)O1 (configuration not stated)" measured=Active
compound="CCC(C)(O)CCCCCC1C=CC(=O)O1 (configuration not stated)" measured=Active
compound="CCC(C)C[C@H]1C(=O)O[C@@H](C)[C@@H]1O (some centres not stated)" measured=Active

Input line: Provide measured Activity value, entry: CCCC[C@H]1C(=O)O[C@@H](C)[C@@H]1O
Output line: Active

Input line: Please supply the value of reported Activity for the item CC(C)CC[C@H]1C(=O)O[C@@H](C)[C@@H]1O
Output line: Active

Input line: Please report Activity for the following compound: CC(=O)C(C)CCCCCC1C=CC(=O)O1 (configuration not stated)
Output line: Active
